molecular target: SERT (Homo sapiens, UniProt P31645); test: in vitro;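 further: uptake into HEK293 cells stably expressing human SERT over 2 min, enantiomers measured in cell lysate by chiral HPLC-MS/MS, normalized to total protein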
Sequence (P31645 whole entry): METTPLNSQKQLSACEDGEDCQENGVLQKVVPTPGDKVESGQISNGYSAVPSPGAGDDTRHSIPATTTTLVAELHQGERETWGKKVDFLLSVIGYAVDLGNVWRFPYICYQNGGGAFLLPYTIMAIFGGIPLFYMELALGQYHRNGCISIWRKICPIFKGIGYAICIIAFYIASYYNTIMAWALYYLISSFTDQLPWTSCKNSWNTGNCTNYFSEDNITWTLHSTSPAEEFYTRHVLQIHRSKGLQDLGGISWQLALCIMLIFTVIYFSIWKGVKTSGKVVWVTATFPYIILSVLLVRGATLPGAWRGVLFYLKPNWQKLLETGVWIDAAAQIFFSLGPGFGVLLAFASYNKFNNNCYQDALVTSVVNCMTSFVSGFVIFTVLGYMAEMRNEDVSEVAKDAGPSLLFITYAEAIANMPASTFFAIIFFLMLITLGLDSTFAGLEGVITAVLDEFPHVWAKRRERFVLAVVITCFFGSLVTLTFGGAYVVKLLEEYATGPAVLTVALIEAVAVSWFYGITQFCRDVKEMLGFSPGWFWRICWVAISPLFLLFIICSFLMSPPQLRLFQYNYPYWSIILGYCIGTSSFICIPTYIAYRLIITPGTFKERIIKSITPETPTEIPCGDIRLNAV
REPORTED METRIC: selectivity ratio
// no unit, no text: just the number

INPUT: Give its selectivity ratio value. Item: NCC(O)c1cccc(O)c1 (single isomer, unassigned)
OUTPUT: 1.53

INPUT: // query selectivity ratio value for entry CNCC(O)c1ccc(O)c(OC)c1 (single isomer, unassigned)
OUTPUT: 1.01

INPUT: Quick one: selectivity ratio for COc1cc(C(O)CN)ccc1O (single isomer, unassigned) ?
OUTPUT: 1.28

INPUT: What measured selectivity ratio goes with CNC[C@H](O)c1cccc(O)c1 [(R)-Phenylephrine] ?
OUTPUT: 2.82

INPUT: Name the recorded selectivity ratio for CNC[C@@H](O)c1ccc(O)cc1 [(S)-Synephrine] .
OUTPUT: 1.13

INPUT: // returns reported selectivity ratio for input CNC[C@H](O)c1ccc(O)cc1 [(R)-Synephrine]
OUTPUT: 1.13

INPUT: I would be grateful if you could share the reported selectivity ratio for CNC[C@@H](O)c1cccc(O)c1 [(S)-Phenylephrine] .
OUTPUT: 2.82
